Task for the reader: assign each of the following compounds its reported Growth Rate.
test system: U2OS; experiment: Incucyte cell viability with U2OS; type: toxicity, cell-based; settings: human, 0 h, 10 µM, compound concentration 10 uM, replicate number 2; note: unitless GR value; below 1 slowed growth and below 0 cell loss
API note: the answer field is a bare number with no unit suffix.

Q) Requested read-out Growth Rate, target or system U2OS, entry `CC(C)c1cnc(NC(=O)Cc2ccccc2)s1`
A) 0.72

Q) Requested read-out Growth Rate, target or system U2OS, entry `O=C(Nc1cccc(Nc2nccc(Nc3cccc(C(F)(F)F)c3)n2)c1)C1CC1`
A) 0.91

Q) Requested read-out Growth Rate, target or system U2OS, entry CCN1C(=O)C(c2cccc(C(=O)O)c2)C(=O)N(c2ccccc2)c2cc(C(F)(F)F)ccc21 (configuration not stated)
A) 0.93

Q) Requested read-out Growth Rate, target or system U2OS, entry `CC(=O)O[C@H]1C(=O)[C@@]2(C)[C@H]([C@H](OC(=O)c3ccccc3)[C@]3(O)C[C@H](OC(=O)[C@H](O)[C@@H](NC(=O)c4ccccc4)c4ccccc4)C(C)=C1C3(C)C)[C@]1(OC(C)=O)CO[C@@H]1C[C@@H]2O`
A) -0.23

Q) Requested read-out Growth Rate, target or system U2OS, entry `CN1CCN(c2nc(N)c3ccccc3n2)CC1`
A) -0.89

Q) Requested read-out Growth Rate, target or system U2OS, entry `Cn1nc(-c2ccc(C(N)=O)cc2)c2ccccc2c1=O`
A) 0.98

Q) Requested read-out Growth Rate, target or system U2OS, entry `COc1nc2ccc([C@@](O)(c3ccccc3)C3CCN(C(C)=O)CC3)cc2c(Cl)c1Cc1ccc(-n2cccn2)cc1`
A) 0.93

Q) Requested read-out Growth Rate, target or system U2OS, entry COc1ccc(COc2ccc(Cc3cnc(N)nc3N)cc2OC)cc1 [GW632580X]
A) 0.63

Q) Requested read-out Growth Rate, target or system U2OS, entry `O=C(NCCN1CCOCC1)c1ccc2nn(CCOc3ccc(Cl)cc3)cc2c1`
A) 0.25

Q) Requested read-out Growth Rate, target or system U2OS, entry `COc1cc2ncnc(Nc3ccc(F)c(Cl)c3)c2cc1OCCN(C)C[C@H](C)O`
A) 0.24

Q) Requested read-out Growth Rate, target or system U2OS, entry `CC(C)(C#Cc1ccc(NC(=O)COc2ccccc2C(=O)c2ccccc2)c(Cl)c1)C(=O)O`
A) -0.27

Q) Requested read-out Growth Rate, target or system U2OS, entry `O=c1cc(-c2ccccc2)oc2c1ccc1ccccc12`
A) -0.73

Q) Requested read-out Growth Rate, target or system U2OS, entry `O=C(O)CCCCN(CCc1cc(F)ccc1OCc1ccc(-c2ccc(C(F)(F)F)cc2)cc1)Cc1ccc(C(=O)O)cc1`
A) -0.4

Q) Requested read-out Growth Rate, target or system U2OS, entry `O[C@]1(C(F)(F)F)CCCC[C@H]1Nc1ccc(F)cc1`
A) 0.62

Q) Requested read-out Growth Rate, target or system U2OS, entry `COc1cc(C(=O)NCCOCCOCCOCC(=O)N[C@H](C(=O)N2C[C@@H](O)C[C@H]2C(=O)NCc2ccc(-c3scnc3C)cc2)C(C)(C)C)ccc1Nc1ncc(C(F)(F)F)c(Oc2cccc3c2C(=O)CC3)n1`
A) 0.1

Q) Requested read-out Growth Rate, target or system U2OS, entry `O=C(O)c1cc(-c2ccccc2)ccc1O`
A) -0.88

Q) Requested read-out Growth Rate, target or system U2OS, entry `COC(=O)c1ccc2c(c1)NC(=O)/C2=C(\Nc1ccc(N(C)C(=O)CN2CCN(C)CC2)cc1)c1ccccc1`
A) 0.08

Q) Requested read-out Growth Rate, target or system U2OS, entry `O=C(Nc1cccc(C(F)(F)F)c1)c1cccc(-n2cc(-c3ccco3)nn2)c1`
A) 0.15

Q) Requested read-out Growth Rate, target or system U2OS, entry `O=C1NC(NC23CC4CC(CC(C4)C2)C3)=N/C1=C\c1ccc2ncsc2c1`
A) -0.34

Q) Requested read-out Growth Rate, target or system U2OS, entry `CCC(=N\O)/C(C)=C/c1ccc(F)cc1`
A) -0.97

Q) Requested read-out Growth Rate, target or system U2OS, entry `O=C1NCCc2c(OCCCCN3CCCCC3)cccc21`
A) -0.98

Q) Requested read-out Growth Rate, target or system U2OS, entry `C[C@@H]1C[C@H](C)CN(c2ncc(Cl)c(Nc3ccc4c(c3)cc(OC(C)(C)C(=O)O)c(=O)n4C)n2)C1`
A) -0.87

Q) Requested read-out Growth Rate, target or system U2OS, entry `CCc1ccc(N(CC(C)C)S(=O)(=O)c2ccc(OCC3CCOCC3)c(CO)c2)cc1`
A) 0.13

Q) Requested read-out Growth Rate, target or system U2OS, entry `C=C(C)[C@H]1CN[C@H](C(=O)O)[C@H]1CC(=O)O`
A) -0.65

Q) Requested read-out Growth Rate, target or system U2OS, entry `CN1CC[C@@]23CCCC[C@@H]2[C@@H]1Cc1ccc(O)cc13.O=C(O)C(O)C(O)C(=O)O`
A) -0.41

Q) Requested read-out Growth Rate, target or system U2OS, entry `COCCCS(=O)(=O)c1cc(C)c(-c2ccc(F)c3c2CC[C@H]3Oc2ccc3c(c2)OC[C@H]3CC(=O)O)c(C)c1`
A) -1

Q) Requested read-out Growth Rate, target or system U2OS, entry `O=C1NCCSc2c1sc1ccc(O)cc21`
A) -0.99

Q) Requested read-out Growth Rate, target or system U2OS, entry `CCc1cc2c(cc1-c1cccc(S(=O)(=O)F)c1)C(C)(C)c1[nH]c3cc(C#N)ccc3c1C2=O`
A) -0.59

Q) Requested read-out Growth Rate, target or system U2OS, entry COC(=O)C1=C(C)NC(C)=C(C(=O)OC(C)C)C1c1cccc2nonc12 (configuration not stated)
A) 0.25

Q) Requested read-out Growth Rate, target or system U2OS, entry `Cc1cccc(-c2nn3c(c2-c2ccnc4ccc(C(N)=O)cc24)CCC3)n1`
A) 0.64

Q) Requested read-out Growth Rate, target or system U2OS, entry `O=C(O)CNC(=O)c1c(O)c2ccccc2n(Cc2ccccc2)c1=O`
A) 0.34

Q) Requested read-out Growth Rate, target or system U2OS, entry `CCNC1=N[C@@H]2[C@@H](O)[C@H](O)[C@@H](CO)O[C@@H]2S1`
A) 0.47
